- experimental_system: T1, rhesus CD11a (rhesus) (UniProt H9Z8N3)
- T1 sequence: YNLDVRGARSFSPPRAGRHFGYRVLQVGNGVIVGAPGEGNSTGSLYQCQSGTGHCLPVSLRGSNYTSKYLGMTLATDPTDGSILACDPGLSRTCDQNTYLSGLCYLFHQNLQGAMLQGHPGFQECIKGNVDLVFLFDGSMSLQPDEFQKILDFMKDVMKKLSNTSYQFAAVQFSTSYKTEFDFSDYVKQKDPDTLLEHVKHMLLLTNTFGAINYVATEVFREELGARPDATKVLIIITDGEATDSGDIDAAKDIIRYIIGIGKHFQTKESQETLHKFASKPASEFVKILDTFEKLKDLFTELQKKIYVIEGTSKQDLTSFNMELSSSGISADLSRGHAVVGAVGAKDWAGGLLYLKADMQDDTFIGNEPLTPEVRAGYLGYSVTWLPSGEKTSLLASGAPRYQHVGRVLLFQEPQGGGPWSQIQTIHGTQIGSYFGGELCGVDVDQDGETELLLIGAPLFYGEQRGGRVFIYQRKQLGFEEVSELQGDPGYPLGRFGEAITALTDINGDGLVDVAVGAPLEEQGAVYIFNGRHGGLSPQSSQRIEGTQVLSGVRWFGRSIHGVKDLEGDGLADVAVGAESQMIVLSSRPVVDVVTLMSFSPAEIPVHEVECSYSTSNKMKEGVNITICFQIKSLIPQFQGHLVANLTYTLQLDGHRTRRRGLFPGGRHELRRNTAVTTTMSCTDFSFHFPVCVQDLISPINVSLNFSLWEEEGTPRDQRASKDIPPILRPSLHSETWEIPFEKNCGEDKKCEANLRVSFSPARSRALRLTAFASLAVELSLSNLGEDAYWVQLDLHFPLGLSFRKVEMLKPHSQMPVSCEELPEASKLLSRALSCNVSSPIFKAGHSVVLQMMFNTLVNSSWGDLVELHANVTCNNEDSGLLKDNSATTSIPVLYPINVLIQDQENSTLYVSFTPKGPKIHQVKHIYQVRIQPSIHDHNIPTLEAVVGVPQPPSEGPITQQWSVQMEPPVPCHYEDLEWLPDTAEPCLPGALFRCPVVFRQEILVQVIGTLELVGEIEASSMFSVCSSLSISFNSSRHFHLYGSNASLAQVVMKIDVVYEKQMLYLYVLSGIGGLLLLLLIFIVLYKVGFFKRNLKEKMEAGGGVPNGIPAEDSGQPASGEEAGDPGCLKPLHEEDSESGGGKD
- assay_info: binding to rhesus peripheral blood lymphocytes
Reported Var.EC50/HuIgG1 EC50 values follow for various binders
Write the number on its own, no unit after it.

SerL50Ala variant IgG1 (antibody, V domains shown) VH: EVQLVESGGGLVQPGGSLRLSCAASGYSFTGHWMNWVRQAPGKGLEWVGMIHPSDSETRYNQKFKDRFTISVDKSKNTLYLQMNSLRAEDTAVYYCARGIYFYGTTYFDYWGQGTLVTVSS VL: DIQMTQSPSSLSASVGDRVTITCRASKTISKYLAWYQQKPGKAPKLLIYAGSTLQSGVPSRFSGSGSGTDFTLTISSLQPEDFATYYCQQHNEYPLTFGQGTKVEIKR	2.7

Query block: For the binder shown here, H2C10 variant IgG1 (antibody, V domains shown) VH: EVQLVESGGGLVQPGGSLRLSCAASGYSFTGHWMNWVRQAPGKGLEWVGMIAPAASSTRYNQKFKDRFTISVDKSKNTLYLQMNSLRAEDTAVYYCARGIYFYGTTYFDYWGQGTLVTVSS VL: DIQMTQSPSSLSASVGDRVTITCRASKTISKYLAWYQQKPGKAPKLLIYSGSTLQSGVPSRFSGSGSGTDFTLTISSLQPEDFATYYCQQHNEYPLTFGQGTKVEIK , give the reported Var.EC50/HuIgG1 EC50.
Result block: 0.22

Hey, just so you know, these numbers are from patent EP1516629B1.
